- Test system: MDA-MB-468
- measurementDescription: normalised response (% of control), CellTiter-Glo; higher = more viable cells (100 = DMSO, 0 = benzethonium chloride kill control)
- recordedConditions: incubation time: 72 h
observationType: normalised response (%)
Report as a plain number; the unit % is understood.

Solved cases (2 shown):
{"compound": "Nc1ccn([C@@H]2O[C@H](CO)[C@@H](O)[C@@H]2O)c(=O)n1 [Cytarabine] (10000 nM)", "assayedSystem": "MDA-MB-468", "normalised response (%)": 62.9}
{"compound": "COc1cccc2c1C(=O)c1c(O)c3c(c(O)c1C2=O)C[C@@](O)(C(=O)CO)C[C@@H]3O[C@H]1C[C@H](N)[C@H](O)[C@H](C)O1 [Doxorubicin] (1000 nM)", "assayedSystem": "MDA-MB-468", "normalised response (%)": 7.26}

normalised response reading for Nc1nc(Cl)nc2c1ncn2[C@H]1C[C@H](O)[C@@H](CO)O1 [Cladribine] (1000 nM) : 87.9

normalised response reading for CC[C@]1(O)C[C@@H]2CN(CCc3c([nH]c4ccccc34)[C@@](C(=O)OC)(c3cc4c(cc3OC)N(C)[C@H]3[C@@](O)(C(=O)OC)[C@H](OC(C)=O)[C@]5(CC)C=CCN6CC[C@]43[C@@H]65)C2)C1 [Vinblastine] (1000 nM) : 33.9
